Provenance of the data: PubChem BioAssay

Assay: P. berghei load reduction in hepatocytes – cell-based, HepG2, luciferase luminescence, HepG2 viability, primary screen (AID 624349);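 further: 100% = mean of DMSO negative control wells on the same plate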
Details: P. berghei liver stage in HepG2, luciferase luminescence, concentration not given here; measured here: HepG2 viability without parasites
property.label: viability (%)
Supply the numeric figure in %, leaving out any unit text.

Entry C=C1CC[C@@H](O)C/C1=C/C=C1\CCC[C@]2(C)[C@@H]([C@H](C)/C=C/[C@@H](C)C(C)C)CC[C@@H]12 ; viability = 88.3

Recorded viability (compound Cc1nc(-c2ccccc2)c(-c2ccncc2)o1 ): 64.2

The compound identified as CC(C)CC(=O)N[C@H](C(=O)NC(C(=O)NC(CC(C)C)[C@@H](O)CC(=O)N[C@@H](C)C(=O)N[C@@H](CC(C)C)[C@@H](O)CC(=O)O)C(C)C)C(C)C (some centres undefined) registered its viability at 180

In plain terms, CC(=O)N[C@@H](Cc1c[nH]c2ccccc12)C(=O)O has a documented viability of 70.5

Query CC(=O)O/N=C1\C(c2c(O)[nH]c3cc(Br)ccc23)=Nc2ccccc21 yields viability of 97.9

The compound listed as COc1ccc(C(=O)/C(Br)=C\C(=O)O)cc1 shows viability equal to 107

Reported viability for CN1[C@@H]2CC[C@H]1CC(OC(=O)[C@@H](CO)c1ccccc1)C2 (some centres undefined) was 89

Query Clc1cnccn1 yields viability of 71.5

Sure, the documented viability for CO[C@H]1C[C@@H]2CC[C@@H](C)[C@@](O)(O2)C(=O)C(=O)N2CCCC[C@H]2C(=O)O[C@H](C(C)C[C@H]2CC[C@@H](O)[C@H](OC)C2)CC(=O)[C@H](C)/C=C(\C)[C@@H](O)[C@@H](OC)C(=O)[C@H](C)C[C@H](C)/C=C/C=C/C=C/1C (some centres undefined) is 63.2

---

Experiment: MELAS cybrid and Rieske KO viability enhancers – cell-based, MELAS cybrids, Rieske KO mouse fibroblasts, CellTiter-Glo, primary screen (AID 1508586);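 further: z relative to plate mean and SD of compound and empty wells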
Conditions: Rieske KO mouse fibroblast survival, low glucose, CellTiter-Glo 72 h
Where a SMILES comes first, the peptide text is derived from it. The star is where a group is joined. Cbz = O=C(OCc1ccccc1)*; CH2F = FC*
Provide the recorded z-score for the entries that follow.
Please give only the number in your answer, with no unit.

z-score measured on CCn1nc(C(=O)N2CCCC2)c2c1CCC(N1CCN(c3ccccc3OC)CC1)C2 (centres undefined) = -0.558

z-score reported for this compound C=CCn1nc(C(=O)N2CCOCC2)c2c1CCC(NCc1ccc(Cl)s1)C2 (centres undefined) : -0.989

Form: compound = S=C=Nc1cccc(NC(=S)NCCCCNC(=S)Nc2cccc(N=C=S)c2)c1 ; z-score = 0.0526

z-score reported for this compound CCn1cnc(NC(=O)N(C)CC2Cc3ccccc3O2)n1 (centres undefined) : -0.0873

Sample CCc1nc(Cn2c3c(cc(-c4ccccc4C)c2=O)CN(Cc2ccc(O)c(Cl)c2)CC3)no1 ; z-score observed: -0.271

For record NCCCNc1ccccc1[N+](=O)[O-] the listed z-score is 0.0452

Form field z-score, entry COc1cc2ncnc(Nc3ccc(F)c(Cl)c3)c2cc1NC(=O)C=CCN1CCCCC1 : -1.94

Per the records, this compound ( COc1ccnc2[nH]cc(C(=O)C(=O)N3CCN(C(=O)c4ccccc4)CC3C)c12 (centres undefined) ) has z-score equal to 0.811

Per the record, NC1CCCN(c2c(C=C3SC(=O)NC3=O)cccc2-c2ccccc2)C1 (centres undefined) has z-score of 0.224

The compound CC[C@@]1([C@@H]2O[C@@H]([C@H]3O[C@@](O)(CO)[C@H](C)C[C@@H]3C)C[C@@H]2C)CC[C@H]([C@]2(C)CC[C@]3(C[C@H](O)[C@@H](C)[C@@H]([C@@H](C)[C@@H](OC)[C@H](C)C(=O)O)O3)O2)O1 (stereo in doubt) showed z-score equal to -1.77

For this compound ( CC1CN(CC(=O)Nc2ccc3c(c2)Cc2cccc(-c4cc(=O)cc(N5CCOCC5)o4)c2S3)CC(C)O1 (centres undefined) ), measured z-score is 1.29

Reported z-score ( COc1cccc2c(=O)n(Cc3ccc4nonc4c3)cnc12 ) = -0.341

# z-score (compound: CS(=O)(=O)c1ccc(C(=N)N)cc1 ) is -0.298

The compound listed as C=CC1=C(C(=O)O)N2C(=O)[C@@H](NC(=O)/C(=N\OCC(=O)O)c3csc(N)n3)[C@H]2SC1 has a reported z-score of 0.0804

// COC(=O)CC(NC(=O)C(C)NC(=O)C(NC(=O)OCc1ccccc1)C(C)C)C(=O)CF (stereo not drawn) (Cbz-Val-Ala-Asp(OMe)-CH2F; configuration not given here) : z-score value = -0.115

Recorded result, O=C(NCC(O)CO)c1ccncc1Nc1ccc(I)cc1F (centres undefined) , z-score: -1.18

Form field z-score, entry CN(C)C(=O)CN(C)C(=O)c1cccc(Nc2ncnc3c2cnn3C)c1 : -0.276

Notebook: Cc1nn(C)cc1-c1ccnc(NCC(C)Oc2cccnc2)n1 (centres undefined) , z-score read as 0.57

In plain terms, NC(=O)c1noc(C(CCCC2CCCCC2)CC(=O)NO)n1 (centres undefined) has a documented z-score of -1.85
